# assay info: Bile pharmacokinetics of 5-FU in rats after whole pelvic irradiation
# Type: in vivo, Sprague-Dawley rats
# measurement conditions: Sprague-Dawley, rat, iv, 100 mg/kg, 5-FU 100 mg/kg i.v., whole pelvic irradiation 0.5 Gy
experimental readout: MRT (min)
Report the value in min with no unit label.

Give recorded MRT. O=c1[nH]cc(F)c(=O)[nH]1 [5-FU, 5-fluorouracil] 11.1

----------
# assay info: Plasma pharmacokinetics of 5-FU in rats with or without MMP-8 inhibitor before whole pelvic irradiation 2 Gy
# Type: in vivo, Sprague-Dawley rats
# measurement conditions: Sprague-Dawley, rat, plasma, iv, 100 mg/kg, 5-FU 100 mg/kg i.v., controls without solvent
experimental readout: AUC (ng·h/mL)
Use ng·h/mL as the unit, but write only the number.

Using known records, supply AUC for O=c1[nH]cc(F)c(=O)[nH]1 [5-FU, 5-fluorouracil] 71400

----------
# assay info: Bile pharmacokinetics of 5-FU in rats after whole pelvic irradiation
# Format: in vivo, Sprague-Dawley rats
# measurement conditions: Sprague-Dawley, rat, iv, 100 mg/kg, 5-FU 100 mg/kg i.v., whole pelvic irradiation 2 Gy, read-out: Vss
experimental readout: Vd
Express your answer as a number followed by its unit.

Give the measured Vd for O=c1[nH]cc(F)c(=O)[nH]1 [5-FU, 5-fluorouracil] 0.903 L/kg

----------
# assay info: Plasma pharmacokinetics of 5-FU in rats with or without MMP-8 inhibitor before whole pelvic irradiation 2 Gy
# Type: in vivo, Sprague-Dawley rats
# measurement conditions: Sprague-Dawley, rat, plasma, iv, 100 mg/kg, plasma, 5-FU 100 mg/kg i.v., whole pelvic irradiation 2 Gy with solvent and MMP-8 inhibitor (10 mg/kg, 2 h before irradiation)
experimental readout: MRT
Note to self: number, then unit, no commentary.

State its MRT for this molecule: O=c1[nH]cc(F)c(=O)[nH]1 36 min

----------
# assay info: Plasma pharmacokinetics of 5-FU in rats with or without MMP-8 inhibitor before whole pelvic irradiation 2 Gy
# Type: in vivo, Sprague-Dawley rats
# measurement conditions: Sprague-Dawley, rat, plasma, iv, 100 mg/kg, 5-FU 100 mg/kg i.v., controls with solvent
experimental readout: AUC (µg·h/mL)
Your answer should be a plain number; it is taken to be in µg·h/mL.

For O=c1[nH]cc(F)c(=O)[nH]1 [5-FU, 5-fluorouracil] , write its AUC. 71.4

----------
# assay info: Bile pharmacokinetics of 5-FU in rats after whole pelvic irradiation
# Type: in vivo, Sprague-Dawley rats
# measurement conditions: Sprague-Dawley, rat, iv, 100 mg/kg, 5-FU 100 mg/kg i.v., controls 0 Gy, read-out: Vss
experimental readout: Vd (L/kg)
Report the value in L/kg with no unit label.

Give Vd for O=c1[nH]cc(F)c(=O)[nH]1 0.754

----------
# assay info: Bile pharmacokinetics of 5-FU in rats after whole pelvic irradiation
# Assay type: in vivo, Sprague-Dawley rats
# measurement conditions: Sprague-Dawley, rat, iv, 100 mg/kg, 5-FU 100 mg/kg i.v., whole pelvic irradiation 2 Gy
experimental readout: clearance (mL/min/kg)
Field: numeric (mL/min/kg). Do not append units.

Give the measured clearance for O=c1[nH]cc(F)c(=O)[nH]1 [5-FU, 5-fluorouracil] 65.1

----------
# assay info: Plasma pharmacokinetics of 5-FU in rats after whole pelvic irradiation
# Format: in vivo, Sprague-Dawley rats
# measurement conditions: Sprague-Dawley, rat, iv, 100 mg/kg, 5-FU 100 mg/kg i.v., whole pelvic irradiation 2 Gy
experimental readout: MRT (min)
Please give a number only; it is taken to be in min.

Entry O=c1[nH]cc(F)c(=O)[nH]1 needs its MRT filled in; supply it. 25
